- assay-procedure: RNA encapsulation efficiency of LNPs by Quant-IT Ribogreen
- Assay type: physicochemical
- protocol-conditions: LNPs with luciferase mRNA; ionizable lipid:non-cationic lipid:sterol:PEG-modified lipid 50:10:38.5:1.5; percentage of RNA entrapped in the LNP
- Protocol: The mRNA aqueous solution was then carefully added to the ethanol solution, and the resulted solution was homogenized by pipetting up and down for 4-5 times. The resulting LNPs were immediately diluted 1:1 with Tris buffer and dialyzed overnight against Tris buffer containing 15% sucrose. The resulting LNP solution was then collected, and the encapsulated mRNA was assessed by Quant-IT® Ribogreen (Invitrogen R11490) following the manufacturer's instructions. […]
test-readout: Encaps. efficiency (%)
A complete answer gives the number and then names the unit.

Example cases with answers are listed next.
compound: CCCCCCCCCCCCCOC(=O)CCSCC(CC(=O)NCCCn1ccnc1)C(=O)OC(CCCCCCCC)CCCCCCCC (stereo not shown)
observed: 65.74%

compound: CCCCCCCCC(CCCCCC)C(=O)NC(CCSCCC(=O)OCC(CC)CCCC)C(=O)NCCCN1CCCC1 (stereo not shown)
observed: 53.57%

compound: CCCCCCCCOC(=O)CCSCCC(NC(=O)C(CCCCCC)CCCCCCCC)C(=O)NCCN1CCN(C)CC1 (stereo not shown)
observed: 87.02%

Request the reported Encaps. efficiency (%) associated with CCCCCCCCOC(=O)CCSCC(CC(=O)NCCCn1ccnc1)C(=O)OC(CCCCCCCC)CCCCCCCC (stereo not shown)
43.89%
